Every entry's value here was drawn from patent US10023566B2.

METHOD DESCRIPTION: Determination of the solubility of dasatinib salts (shake flask 37° C., HPLC)
Format: physicochemical
REPORTED CONDITIONS: pH = 6.8 phosphate buffer, 6 hour shaking, 18 hour sedimentation
Structures can show the parent of a compound that is named as a salt.
MEASURED PROPERTY: log10 solubility (log10 of the value in µg/mL)

COMPOUND | log10 solubility
Cc1nc(Nc2ncc(C(=O)Nc3c(C)cccc3Cl)s2)cc(N2CCN(CCO)CC2)n1 [dasatinib mesilate (1:2)] | 1.23
Cc1nc(Nc2ncc(C(=O)Nc3c(C)cccc3Cl)s2)cc(N2CCN(CCO)CC2)n1 [dasatinib tosilate (1:1) Form II anhydrate] | 1.04
Cc1nc(Nc2ncc(C(=O)Nc3c(C)cccc3Cl)s2)cc(N2CCN(CCO)CC2)n1 [Dasatinib monohydrate, reference compound] | 2.19
Cc1nc(Nc2ncc(C(=O)Nc3c(C)cccc3Cl)s2)cc(N2CCN(CCO)CC2)n1 [dasatinib tosilate (1:1) dihydrate] | 1.00
Cc1nc(Nc2ncc(C(=O)Nc3c(C)cccc3Cl)s2)cc(N2CCN(CCO)CC2)n1 [dasatinib cyclamic acid (1:1) salt Form I] | 0.70

* * *

Recorded solubility for the following compounds
METHOD DESCRIPTION: Determination of the solubility of dasatinib salts (shake flask 37° C., HPLC)
Format: physicochemical
REPORTED CONDITIONS: 0.1M HCl (pH 1), 6 hour shaking, 18 hour sedimentation
Counter-ions that a name gives are not always drawn.

COMPOUND | solubility / µg/mL
Cc1nc(Nc2ncc(C(=O)Nc3c(C)cccc3Cl)s2)cc(N2CCN(CCO)CC2)n1 [dasatinib tosilate (1:1) Form II anhydrate] | 5702
Cc1nc(Nc2ncc(C(=O)Nc3c(C)cccc3Cl)s2)cc(N2CCN(CCO)CC2)n1 [dasatinib tosilate (1:1) dihydrate] | 4898
Cc1nc(Nc2ncc(C(=O)Nc3c(C)cccc3Cl)s2)cc(N2CCN(CCO)CC2)n1 [dasatinib cyclamic acid (1:1) salt Form I] | 8533
Cc1nc(Nc2ncc(C(=O)Nc3c(C)cccc3Cl)s2)cc(N2CCN(CCO)CC2)n1 [dasatinib tosilate (1:1) Form I anhydrate] | 5365
Cc1nc(Nc2ncc(C(=O)Nc3c(C)cccc3Cl)s2)cc(N2CCN(CCO)CC2)n1 [dasatinib cyclamic acid (1:1) salt Form II] | 8862
Cc1nc(Nc2ncc(C(=O)Nc3c(C)cccc3Cl)s2)cc(N2CCN(CCO)CC2)n1 [Dasatinib monohydrate, reference compound] | 5757
Cc1nc(Nc2ncc(C(=O)Nc3c(C)cccc3Cl)s2)cc(N2CCN(CCO)CC2)n1 [dasatinib hydrogen bromide (1:2) salt] | 7994

* * *

METHOD DESCRIPTION: Determination of the solubility of dasatinib salts (shake flask 37° C., HPLC)
Format: physicochemical
REPORTED CONDITIONS: pH = 4.5 phosphate buffer, 6 hour shaking, 18 hour sedimentation
Where a name gives a salt, the structure may show the parent alone.
MEASURED PROPERTY: log10 solubility (log10 of the value in mg/mL)

COMPOUND | log10 solubility
Cc1nc(Nc2ncc(C(=O)Nc3c(C)cccc3Cl)s2)cc(N2CCN(CCO)CC2)n1 [Dasatinib monohydrate, reference compound] | -0.26
Cc1nc(Nc2ncc(C(=O)Nc3c(C)cccc3Cl)s2)cc(N2CCN(CCO)CC2)n1 [dasatinib tosilate (1:1) Form II anhydrate] | 0.45
Cc1nc(Nc2ncc(C(=O)Nc3c(C)cccc3Cl)s2)cc(N2CCN(CCO)CC2)n1 [dasatinib tosilate (1:1) Form I anhydrate] | 0.65
Cc1nc(Nc2ncc(C(=O)Nc3c(C)cccc3Cl)s2)cc(N2CCN(CCO)CC2)n1 [dasatinib cyclamic acid (1:1) salt Form II] | 0.66
Cc1nc(Nc2ncc(C(=O)Nc3c(C)cccc3Cl)s2)cc(N2CCN(CCO)CC2)n1 [dasatinib tosilate (1:1) dihydrate] | 0.22
Cc1nc(Nc2ncc(C(=O)Nc3c(C)cccc3Cl)s2)cc(N2CCN(CCO)CC2)n1 [dasatinib mesilate (1:2)] | -0.09
Cc1nc(Nc2ncc(C(=O)Nc3c(C)cccc3Cl)s2)cc(N2CCN(CCO)CC2)n1 [dasatinib hydrogen bromide (1:2) salt] | 0.02
Cc1nc(Nc2ncc(C(=O)Nc3c(C)cccc3Cl)s2)cc(N2CCN(CCO)CC2)n1 [dasatinib cyclamic acid (1:1) salt Form I] | 0.79
